B1: TPR 5TU (parent)
chain: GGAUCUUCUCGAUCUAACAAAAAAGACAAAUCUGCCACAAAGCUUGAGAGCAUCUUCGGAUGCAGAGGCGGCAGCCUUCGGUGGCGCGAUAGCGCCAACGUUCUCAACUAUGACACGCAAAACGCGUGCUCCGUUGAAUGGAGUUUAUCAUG

Variants of: B1
Test: polymerase ribozyme fitness, log enrichment relative to wild type (log ratio); higher = more active; in vitro selection for triplet polymerase activity
Variants at the floor of the assay were thinned out.
PROPERTY NAME: polymerase ribozyme fitness (log ratio)
I'd appreciate a reply containing only the number, no unit.

1) U53G G92U G143U U144A	-3.84

Continue with the variant presented below.
# input variant: C93U C105U ; wanted: its polymerase ribozyme fitness (log ratio)
-2.55

// data source = the RNAGym collection of RNA variant scans (doi:10.1073/pnas.2313332121)
